Tested on: T-47D breast
Assay: NCI-60 one-dose screen, 48 h (100 = growth as untreated, 0 = no growth, -100 = all killed)
Details: 10 µM unless noted
Compounds without any hit were thinned out: in the full panel of roughly 83,000, 20% have a hit.
readout_name: growth (%)
Could you give me the number in %? Just the number is fine.

Consider the reported growth for these compounds:
c1ccc(-c2c(-c3ccccc3)[n+](Cc3ccc4ccccc4c3)c(-c3ccccc3)n2Cc2ccc3ccccc3c2)cc1; -60.9
CN(c1ccc(F)cc1)S(=O)(=O)c1ccc(-c2cnc(C3CC3)o2)cc1; 54.1

Prompt line: For `C=C1C(=O)O[C@@H]2C[C@@H](C)/C=C\C(=O)[C@](C)(OC(C)=O)C[C@H](OC(=O)/C(C)=C\C)[C@@H]12` , what is its reported growth?
Response line: -72.8

Prompt line: And for `C=CCn1c(SCC(=O)Nc2cccc(C(=O)/C=C/c3cc(OC)c(OC)c(OC)c3)c2)nc2ccccc2c1=O` ?
Response line: 66.4

* * *

System: KM12 colon
Assay: NCI-60 one-dose screen, 48 h (100 = growth as untreated, 0 = no growth, -100 = all killed)
Conditions: 10 µM unless noted
About 83,000 compounds went through this panel and 20% of them were active in at least one assay; those are over-represented in the sample as a whole.
List of growth values.
Could you give me the number in %? Just the number is fine.

O=C(c1cccc(F)c1)n1ccc2cc(NC(=S)Nc3cccnc3)ccc21; 97.9
COc1cc([C@H]2OC[C@H]3[C@@H]2CO[C@@H]3c2ccc(O)c(OC)c2)ccc1O; 90.6
O=C(c1ccc(O)cc1)[C@@H]1[C@@H]2CCCN2[C@@]2(C(=O)N(C(=O)c3ccc(F)cc3)c3ccccc32)[C@H]1c1ccc(F)cc1; 100
COc1ccc2c(c1)c(-c1nn3c(=O)cc(-c4ccccc4)nc3s1)cn2C; 44.7
COc1cc2c3c(n(CCCNC4CCCCC4)c(=O)c2cc1OC)-c1cc2c(cc1C3=O)OCO2; 57.4

Prompt line: For `CCOC(=O)c1c(NCC(=O)Nc2cccc(Cl)c2)sc2c1CCCC2` , what is its reported growth?
Response line: 95.8

Prompt line: And for `COc1cc2c3c(n(CCCNCC4CC4)c(=O)c2cc1OC)-c1cc2c(cc1C3=O)OCO2` ?
Response line: 65.1

Prompt line: And for `COc1ccc(-c2nc3cc(Cl)c(Cl)cc3n2CC(=O)N=Nc2c(O)[nH]c3ccc(Br)cc23)cc1` ?
Response line: 5.77

Prompt line: And for `CNC(=O)c1cc(Oc2ccc3nc(NC(=O)c4cccc(C(F)(F)F)c4)sc3c2)ccn1` ?
Response line: 102

* * *

Test system: K-562 leukemia
Experiment: NCI-60 one-dose screen, 48 h
Conditions: 10 µM unless noted
Method: Cells are grown in 96 well plates and exposed to the test compound for 48 hours. Compounds are tested at a single concentration, which is 10^-5 M for most compounds. The reported endpoint is percent growth (GI% or GIPRCNT), where numbers from 0 - 100% represent growth inhibition, and numbers from -100% - 0 represent cell death. For example, a value of 40 represents 60% growth inhibition. A value of 0 means no net growth occurred over the course of the experiment. […]
About 83,000 compounds went through this panel and 20% of them were active in at least one assay; those are over-represented in the sample as a whole. The source made the active and inactive calls. Rule for the calls: active = growth percent below 10; inactive = the rest.
In this exercise, the only acceptable responses are YES = active, NO = inactive

Known results for compounds:
CCCCCCCCCC[C@@H](C)[C@@H]1CC(=O)N[C@H]([C@@H](C)O)C(=O)N[C@@H](C)C(=O)N[C@H](C)C(=O)N[C@@H](CCC(N)=O)C(=O)N[C@H](Cc2ccc(O)cc2)C(=O)N[C@@H](C(C)CC)C(=O)O1 (stereo partly specified); NO
C/C(=N/Nc1nc(N/N=C(/C)c2ccc([N+](=O)[O-])cc2)nc(N2CCOCC2)n1)c1ccc([N+](=O)[O-])cc1; NO

Prompt line: Returns: the outcome recorded for `COc1cc(/C=N/n2cnc3oc(-c4ccccc4)cc3c2=N)cc(CN2CCN(C)CC2)c1O` in this assay.
Response line: NO

Prompt line: And for `COc1cc(-c2noc(C[C@@H](NC(=O)OCc3ccccc3)C(C)C)n2)cc(OC)c1OC` ?
Response line: NO

Prompt line: And for `CCNC(=O)Oc1ccc(/C(=C(/C)c2ccc(Cl)cc2)c2ccc(OCCN(C)C)cc2)cc1` ?
Response line: NO

Prompt line: And for `O=C1c2c(c3c4cc(Br)ccc4[nH]c3c3ccc4ccccc4c23)C(=O)N1CCN1CCCCC1` ?
Response line: YES

Prompt line: And for CS(=O)c1nccc(-c2c(-c3ccc(F)c(OCc4ccccc4)c3)nc3sccn23)n1 (stereo unspecified) ?
Response line: NO

Prompt line: And for `Nc1n[nH]c2cccc(C#Cc3cccc(NC(=O)c4cccc(OC(F)(F)F)c4)c3)c12` ?
Response line: YES

Prompt line: And for `CC(=O)NC(C)(C)C(=O)N1CCC[C@H]1C(=O)NC(C)(C)C(=O)N[C@@H](C)C(=O)NC(C)(C)C(=O)NC(C)(C)C(=O)N[C@@H](CCC(N)=O)C(=O)NC(C)(C)C(=O)N[C@H](C(=O)NC(C)(C)C(=O)NCC(=O)N[C@@H](CC(C)C)C(=O)NC(C)(C)C(=O)N1CCC[C@H]1C(=O)N[C@H](C(=O)NC(C)(C)C(=O)NC(C)(C)C(=O)N[C@@H](CCC(N)=O)C(=O)N[C@@H](CCC(N)=O)C(=O)N[C@H](CO)Cc1ccccc1)C(C)C)C(C)C` ?
Response line: NO

Prompt line: And for `COc1ccc(Cn2cc3c(c2-c2ccccc2)CCCc2cnoc2-3)cc1` ?
Response line: NO

Prompt line: And for Cn1c(SC(C(=O)Nc2ccc(F)cc2)c2ccccc2)nc2ccccc2c1=O (stereo unspecified) ?
Response line: NO

Prompt line: And for `COc1ccc([C@H]2c3[nH]c4ccccc4c3C[C@@H]3C(=O)N(C4CCN(Cc5ccccc5)CC4)CC(=O)N23)c(OC)c1` ?
Response line: NO

Prompt line: And for `CC(C)SC1=NC(=C(C(=N1)NC2=ClC=CC=C2)C#N)C3=CC=CC=C3` ?
Response line: NO

Prompt line: And for `CC(C)C[C@H]1C(=O)O[C@H](C(C)C)C(=O)N(C)[C@@H](C(C)C)C(=O)O[C@H](C(C)C)C(=O)N(C)[C@@H](C(C)C)C(=O)O[C@H](C(C)C)C(=O)N1C` ?
Response line: YES

Prompt line: And for CCOC(=O)/C(F)=C/C1CC1C1CCCCC1 (stereo unspecified) ?
Response line: NO

Prompt line: And for `CCN1C/C(=N\S(=O)(=O)c2ccccc2)N(CC)C1=S` ?
Response line: NO

Prompt line: And for `O=C1[C@H]2Cc3c([nH]c4ccccc34)[C@@H](c3c(Cl)cccc3Cl)N2C(=O)CN1C1CCN(Cc2ccccc2)CC1` ?
Response line: YES

Prompt line: And for `Brc1cccc(/C=N/Nc2nc(N/N=C/c3cccc(Br)c3)nc(N3CCOCC3)n2)c1` ?
Response line: NO
